Below: a set of entries, each annotated with reported Relative activity.
- target.of.assay: Squalene synthase (Rattus norvegicus)
- Sequence (whole entry): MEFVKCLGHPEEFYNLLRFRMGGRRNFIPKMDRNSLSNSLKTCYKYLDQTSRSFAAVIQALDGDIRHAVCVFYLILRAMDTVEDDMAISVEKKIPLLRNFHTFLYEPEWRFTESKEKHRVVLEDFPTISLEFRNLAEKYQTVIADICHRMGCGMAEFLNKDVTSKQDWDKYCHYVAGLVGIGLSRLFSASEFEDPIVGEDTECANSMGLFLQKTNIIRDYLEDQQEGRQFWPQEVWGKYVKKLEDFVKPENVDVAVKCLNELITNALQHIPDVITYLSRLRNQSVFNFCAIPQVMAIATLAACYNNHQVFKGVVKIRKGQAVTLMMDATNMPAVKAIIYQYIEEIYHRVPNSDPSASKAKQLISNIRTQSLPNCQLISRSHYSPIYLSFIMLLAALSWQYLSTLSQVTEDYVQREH
- test: concentration required to inhibit rat liver squalene synthase enzyme relative to control (L-694,599)

Sample answers from the record:
compound	readout.kind	val
C=C(CCC12OC(C(=O)O)C(OCCCCCCCCCCCCCC)(C(=O)O)C(C(=O)O)(O1)[C@H](O)[C@H]2O)[C@@H](OC(C)=O)[C@H](C)Cc1ccccc1 (stereo not given in full)	Relative activity	0.17
C=C(CCC12OC(C(=O)O)C(OCCCCCCCCCCCOc3ccccc3)(C(=O)O)C(C(=O)O)(O1)[C@H](O)[C@H]2O)[C@@H](OC(C)=O)[C@H](C)Cc1ccccc1 (stereo not given in full)	Relative activity	0.11
C=C(CCC12OC(C(=O)O)C(OCCCCCCCCOc3ccccc3)(C(=O)O)C(C(=O)O)(O1)[C@H](OCCCCCCCCOc1ccccc1)[C@H]2O)[C@@H](OC(C)=O)[C@H](C)Cc1ccccc1 (stereo not given in full)	Relative activity	0.02

Ask | Lab note: need Relative activity with Squalene synthase (Rattus norvegicus) for entry C=C(CCC12OC(C(=O)O)C(O)(C(=O)O)C(C(=O)O)(O1)[C@H](OC(=O)NCCCCCCCCCCCOc1ccccc1)[C@H]2O)[C@@H](OC(C)=O)[C@H](C)Cc1ccccc1 (stereo not given in full) , please look it up.
Reply | 1.71

Ask | Reported Relative activity for Squalene synthase (Rattus norvegicus), given C=C(CCC12OC(C(=O)O)C(O)(C(=O)O)C(C(=O)O)(O1)[C@H](OCCCCCCCCCCCCCC)[C@H]2O)[C@@H](OC(C)=O)[C@H](C)Cc1ccccc1 (stereo not given in full) ?
Reply | 1.26

Ask | Please tell me: Relative activity of C=C(CCC12OC(C(=O)O)C(O)(C(=O)O)C(C(=O)O)(O1)[C@H](OC(=O)/C=C/[C@@H](C)C[C@@H](C)CC)[C@H]2O)C[C@H](C)Cc1ccccc1 (stereo not given in full) , system Squalene synthase (Rattus norvegicus)?
Reply | 1.67

Ask | So what Relative activity did C=C(CCC12OC(C(=O)O)C(O)(C(=O)O)C(C(=O)O)(O1)[C@H](OCCCCCCCCCCCCCCCC)[C@H]2O)[C@@H](OC(C)=O)[C@H](C)Cc1ccccc1 (stereo not given in full) get with Squalene synthase (Rattus norvegicus)?
Reply | 0.15

Ask | Request - read-out Relative activity | tested on Squalene synthase (Rattus norvegicus) | compound C=C(CCC12OC(C(=O)O)C(O)(C(=O)O)C(C(=O)O)(O1)[C@H](OC(=O)OCCCCCCCCCCCOc1ccccc1)[C@H]2O)[C@@H](OC(C)=O)[C@H](C)Cc1ccccc1 (stereo not given in full)
Reply | 3

Ask | Field: Relative activity (Squalene synthase (Rattus norvegicus)). Entry: C=C(CCC12OC(C(=O)O)C(O)(C(=O)O)C(C(=O)O)(O1)[C@H](OC(=O)SC(C)C)[C@H]2O)[C@@H](OC(C)=O)[C@H](C)Cc1ccccc1 (stereo not given in full)
Reply | 0.06

Ask | State its Relative activity on Squalene synthase (Rattus norvegicus): C=C(CCC12OC(C(=O)O)C(O)(C(=O)O)C(C(=O)O)(O1)[C@H](OCCCCCCCCCC)[C@H]2O)[C@@H](OC(C)=O)[C@H](C)Cc1ccccc1 (stereo not given in full)
Reply | 1.43

Ask | Provide value of Relative activity for this record tested with Squalene synthase (Rattus norvegicus): C=C(CCC12OC(C(=O)O)C(O)(C(=O)O)C(C(=O)O)(O1)[C@H](O/C(S)=N/C(C)C)[C@H]2O)[C@@H](OC(C)=O)[C@H](C)Cc1ccccc1 (stereo not given in full)
Reply | 0.01

Ask | Item: C=C(CCC12OC(C(=O)O)C(OCCCCCCCCCCCC)(C(=O)O)C(C(=O)O)(O1)[C@H](OCCCCCCCCCCCC)[C@H]2O)[C@@H](OC(C)=O)[C@H](C)Cc1ccccc1 (stereo not given in full) Test system: Squalene synthase (Rattus norvegicus) Read-out: Relative activity Value: ?
Reply | 0.02

Ask | // fetch Squalene synthase (Rattus norvegicus) Relative activity for C=C(CCC12OC(C(=O)O)C(O)(C(=O)O)C(C(=O)O)(O1)[C@H](OCCCCCCCCOc1ccccc1)[C@H]2O)[C@@H](OC(C)=O)[C@H](C)Cc1ccccc1 (stereo not given in full)
Reply | 0.81

Ask | Which measured Relative activity belongs to C=C(CCC12OC(C(=O)O)C(O)(C(=O)O)C(C(=O)O)(O1)[C@H](OC(=O)/C=C/[C@@H](C)C[C@@H](C)CC)[C@H]2O)[C@@H](OC(=O)CC)[C@H](C)Cc1ccccc1 (stereo not given in full) , tested on Squalene synthase (Rattus norvegicus)?
Reply | 0.69

Ask | Record C=C(CCC12OC(C(=O)O)C(O)(C(=O)O)C(C(=O)O)(O1)[C@H](OC(=O)CC(C)(C)C)[C@H]2O)[C@@H](OC(C)=O)[C@H](C)Cc1ccccc1 (stereo not given in full) : what is its Relative activity with Squalene synthase (Rattus norvegicus)?
Reply | 0.15

Just for reference, ChEMBL document CHEMBL1127414 is where these values come from.
